Test system: rabbit apolipoprotein B mRNA
assayProcedure: Inhibition of rabbit apolipoprotein B mRNA levels in primary rabbit hepatocytes, real-time PCR
Assay type: cell-based
Parameters: concentration or dose not given beside the values
In the oligonucleotide strings, read from the 5' end, every base follows the letter of its sugar. An asterisk marks phosphorothioate; unmarked linkages are phosphodiester. Other units and linkages are bracketed, terminal groups are in braces. A string of capitals states the bases alone. e = 2'-O-(2-methoxyethyl) (MOE); [5mC] = 5-methylcytosine; d = 2'-deoxy (DNA)
So basically: % INHIB of rabbit apolipoprotein B mRNA levels at 30% or higher? That is fulfilled. Lower than 30%? That is not fulfilled.

substance: 233168 (antisense eG*eG*eA*e[5mC]*eT*dG*dT*dA*d[5mC]*d[5mC]*dT*d[5mC]*dA*dA*dG*e[5mC]*eT*eG*eG*eT) [compound 233168]
group: not fulfilled
--
substance: 233173 (antisense eT*eT*eG*eT*eG*dT*dT*d[5mC]*d[5mC]*dT*dT*dG*dA*dA*dG*e[5mC]*eG*eG*e[5mC]*e[5mC]) [compound 233173]
group: not fulfilled
--
substance: 233149 (antisense eT*eG*e[5mC]*eT*eT*dG*dG*dA*dG*dA*dA*dG*dG*dT*dA*eA*eG*eA*eT*e[5mC]) [compound 233149]
group: not fulfilled
--
substance: 233176 (antisense eG*eA*eA*eA*eT*d[5mC]*dT*dG*dG*dA*dA*dG*dA*dG*dA*eG*eA*e[5mC]*e[5mC]*eT) [compound 233176]
group: fulfilled
--
substance: 233183 (antisense e[5mC]*eA*eG*eT*eG*dT*dA*dA*dT*dG*dA*dT*d[5mC]*dG*dT*eT*eG*eA*eT*eT) [compound 233183]
group: fulfilled
--
substance: 233161 (antisense eT*eT*eG*eG*e[5mC]*dA*dT*dT*dA*dT*d[5mC]*d[5mC]*dA*dA*dT*eG*e[5mC]*eA*eG*eT) [compound 233161]
group: not fulfilled

Origin of measurements: patent US7803930B2
